experiment: BSK_3C_TissueFactor: BioMAP Diversity Plus: 3C Assay for Tissue Factor Biomarker Activity (AID 2282997); details: BioMAP 3C HUVEC, tissue factor biomarker readout; actives raise or lower the signal
Activity calls are given as the source filed them. The calls were made as follows: active = hit-call score of the fitted dose curve at least 0.9, where 1 is the maximum; inactive = score below 0.9.
The categories you may choose from are T (active), F (inactive)

# fetch the recorded call for COCC(C)O (stereo not drawn) here
F

# fetch the recorded call for `CCCCOCCO` here
F

# fetch the recorded call for `c1ccc2c(c1)Cc1ccccc1-2` here
T

# fetch the recorded call for `NC(=O)N(O)[C@@H]1C=C[C@H](Oc2cccc(Oc3ccc(F)cc3)c2)C1` here
F

# fetch the recorded call for `CCCCCCC(=O)O` here
F

# fetch the recorded call for CCCCC(CC)COC(=O)CCCCC(=O)OCc1ccccc1 (stereo not drawn) here
F

# fetch the recorded call for CCC(C)(C)C1CCC(O)CC1 (stereo not drawn) here
F

# fetch the recorded call for `CC#C[C@]1(O)CC[C@H]2[C@@H]3CCC4=CC(=O)CCC4=C3[C@@H](c3ccc(N(C)C)cc3)C[C@@]21C` here
F

# fetch the recorded call for CCc1nn(C2CCCCC2)c2cc(C3(C#N)CCC(C(=O)O)CC3)ccc12 (stereo not drawn) here
F

# fetch the recorded call for CCc1ccc(CCOc2ccc(CC3SC(=O)NC3=O)cc2)nc1 (stereo not drawn) here
F

# fetch the recorded call for `Oc1cc2ccccc2c2ccccc12` here
T

# fetch the recorded call for `CC(C)(C)c1cccc(C(C)(C)C)c1O` here
F

# fetch the recorded call for `CCOC(=O)CC(O)(CC(=O)OCC)C(=O)OCC` here
F

###

read-out: Tissue Factor, F3 (gene 2152); assay: BSK_CASM3C_TissueFactor: BioMAP Diversity Plus: CASM3C Assay for Tissue Factor Biomarker Activity (AID 2283052); settings: primary human coronary artery smooth muscle cells; actives raise or lower the signal;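 also: cell surface tissue factor protein level read by ELISA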
Activity calls are given as the source filed them. Rule for the calls: active = hit-call score of the fitted dose curve at least 0.9, where 1 is the maximum; inactive = score below 0.9.
The categories you may choose from are T = active, F = inactive

# fetch the recorded call for `CCCCCCCCOC(=O)CCCCCCCCC(=O)OCCCCCCCC` here
F

# fetch the recorded call for `ClC1=C(Cl)C(Cl)(Cl)C(Cl)=C1Cl` here
T

# fetch the recorded call for `c1ccc2cc3c(ccc4ccccc43)cc2c1` here
F

# fetch the recorded call for `Cc1cc(C)c(O)c(C)c1` here
F

# fetch the recorded call for `O=C(OCCOCCOC(=O)c1ccccc1)c1ccccc1` here
F

# fetch the recorded call for `CC(C)(C)c1ccc(O)c(C(C)(C)C)c1` here
T

# fetch the recorded call for `CC(C)(C)CC(C)(C)c1ccc(O)c(-n2nc3ccccc3n2)c1` here
F

###

test: Tanguay_ZF_120hpf_JAW_legacy: (Legacy) Oregon State University Tanguay Lab 120 Hour Post-fertilization zebrafish Assay for Jaw Malformation (AID 2283638)
Records with an inconclusive call do not appear. Activity calls are given as the source filed them. How the source made its calls: active means hit-call score of the fitted dose curve at least 0.9, where 1 is the maximum; inconclusive means response in the unintended direction; inactive means score below 0.9.
The categories you may choose from are active, inactive

# fetch the recorded call for `C[C@@H]1C[C@H]2[C@@H]3CCC4=CC(=O)C=C[C@]4(C)[C@@]3(F)[C@@H](O)C[C@]2(C)[C@@]1(O)C(=O)COP(=O)(O)O` here
inactive

# fetch the recorded call for N#C[C@@H]1CC(F)(F)CN1C(=O)CNC1CC2CCC(C1)N2c1ncccn1 (stereo partly specified) here
inactive

# fetch the recorded call for `c1ccc2c(c1)ccc1ccccc12` here
inactive

# fetch the recorded call for `CCCCCCCCCCCCN1CCCC1=O` here
active

# fetch the recorded call for `O=C(O)c1ccccc1C(c1ccc(O)cc1)c1ccc(O)cc1` here
inactive

# fetch the recorded call for `CCCCCCCC(=O)O` here
inactive
